target: VIPR2 (Homo sapiens); assay: Inhibition of VIP-induced β-arrestin recruitment (% Activity Arrestin); format: cell-based; set-up: expressed in transfected cells; host or cells: HEK293 cells transfected with VIPR2 in pCDNA3.1 (as described); conditions: 1 μM, Batch 2
Below, each entry is listed with its recorded inhibition at 1 µM.
Kindly answer with a numeric value in %, unit omitted.

Some solved cases for reference:
Asked: // Input: C#CCNC(=O)[C@H](Cc1ccccc1)C[C@H](O)CNS(=O)(=O)c1ccc([N+](=O)[O-])cc1 [Compound B21A] . Output its inhibition at 1 µM only.
Given back: 7.2

Asked: // Input: `O=C(NCc1ccccc1)[C@H](Cc1ccccc1)C[C@H](O)CNS(=O)(=O)c1ccc([N+](=O)[O-])cc1` . Output its inhibition at 1 µM only.
Given back: 4.4

Further cases:
Asked: // Input: C[C@H](CC(C)(C)C)NC(=O)[C@H](Cc1ccccc1)C[C@H](O)CNS(=O)(=O)c1ccc([N+](=O)[O-])cc1 [Compound B10A] . Output its inhibition at 1 µM only.
Given back: 3

Asked: // Input: `CCCCNC(=O)[C@@H](Cc1ccccc1)C[C@H](O)CNS(=O)(=O)c1ccc([N+](=O)[O-])cc1` . Output its inhibition at 1 µM only.
Given back: 20.4

====

Below, each entry is listed with its recorded inhibition at 1 µM.
Target: UniProt P41587
Experiment: Inhibition of VIP-induced cAMP elevation (% Activity cAMP)
Format: cell-based
Parameters: expressed in transfected cells; host or cells: HEK293 cells transfected with VIPR2 in pCDNA3.1 (as described)
Conditions: 1 μM, Batch 2
Protocol: In a further non-limiting embodiment of the invention, the ability of a compound to inhibit VIPR2 and thereby […] a VIP-induced increase in cAMP may be measured using a Homogeneous Time-Resolved Fluorescence (“HTRF® assay; Cisbio Bioassays) as used in Chu et al., 2010, Molecular Pharmacol. 7795-101. […] After at least 1 h of room-temperature incubation, HTRF signal may be read, for example using Viewlux or EnVision (PerkinElmer Life and Analytical Sciences, Waltham, Mass.). […]
Kindly answer with a numeric value in %, unit omitted.

Some solved cases for reference:
Asked: // Input: `CCCCNC(=O)[C@@H](Cc1ccccc1)C[C@H](O)CNS(=O)(=O)c1ccc([N+](=O)[O-])cc1` . Output its inhibition at 1 µM only.
Given back: 0.6

Asked: // Input: C#CCNC(=O)[C@@H](Cc1ccccc1)C[C@H](O)CNS(=O)(=O)c1ccc([N+](=O)[O-])cc1 [Compound B21B] . Output its inhibition at 1 µM only.
Given back: 7.3

Further cases:
Asked: // Input: CC1CCC(NC(=O)[C@@H](Cc2ccccc2)C[C@H](O)CNS(=O)(=O)c2ccc([N+](=O)[O-])cc2)CC1 (stereo partly shown) . Output its inhibition at 1 µM only.
Given back: 9.5

Asked: // Input: CCNC(=O)[C@H](Cc1ccccc1)C[C@H](O)CNS(=O)(=O)c1ccc([N+](=O)[O-])cc1 [Compound B16A] . Output its inhibition at 1 µM only.
Given back: -0.4

====

Below, each entry is listed with its recorded inhibition at 5 µM.
molecular target: VIPR2 (Homo sapiens, UniProt P41587); test: Inhibition of VIP-induced β-arrestin recruitment (% Activity Arrestin); assay type: cell-based; design: expressed in transfected cells; host or cells: HEK293 cells transfected with VIPR2 in pCDNA3.1 (as described); details: 5 μM, Batch 3
Sequence (P41587 24-438): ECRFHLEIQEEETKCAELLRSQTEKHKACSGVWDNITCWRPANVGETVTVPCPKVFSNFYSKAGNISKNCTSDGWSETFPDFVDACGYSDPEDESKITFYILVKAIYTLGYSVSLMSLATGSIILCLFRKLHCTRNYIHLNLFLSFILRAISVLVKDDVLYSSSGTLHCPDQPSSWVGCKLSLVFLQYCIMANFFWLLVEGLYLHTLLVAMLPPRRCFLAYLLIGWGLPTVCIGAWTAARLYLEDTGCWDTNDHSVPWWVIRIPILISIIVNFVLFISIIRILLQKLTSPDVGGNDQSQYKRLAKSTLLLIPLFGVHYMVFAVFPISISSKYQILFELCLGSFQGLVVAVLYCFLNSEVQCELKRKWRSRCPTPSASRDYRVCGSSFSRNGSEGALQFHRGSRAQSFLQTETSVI
Kindly answer with a numeric value in %, unit omitted.

Asked: // Input: `O=C(O)c1ccc(S(=O)(=O)NC[C@@H](O)C[C@@H](Cc2ccccc2)C(=O)N[C@H]2c3ccccc3C[C@H]2O)cc1` . Output its inhibition at 5 µM only.
Given back: 0.2

Asked: // Input: `CC(C)CNc1ccc(S(=O)(=O)NC[C@@H](O)C[C@@H](Cc2ccccc2)C(=O)N[C@H]2c3ccccc3C[C@H]2O)cc1` . Output its inhibition at 5 µM only.
Given back: 11.9

Asked: // Input: `CC(C)C(=O)Nc1ccc(S(=O)(=O)NC[C@@H](O)C[C@@H](Cc2ccccc2)C(=O)N[C@H]2c3ccccc3C[C@H]2O)cc1` . Output its inhibition at 5 µM only.
Given back: -7.5

Asked: // Input: `CNc1ccc(S(=O)(=O)NC[C@@H](O)C[C@@H](Cc2ccccc2)C(=O)N[C@H]2c3ccccc3C[C@H]2O)cc1` . Output its inhibition at 5 µM only.
Given back: 4.3

Asked: // Input: `O=C(NC1CCCC1)c1ccc(S(=O)(=O)NC[C@@H](O)C[C@@H](Cc2ccccc2)C(=O)N[C@H]2c3ccccc3C[C@H]2O)cc1` . Output its inhibition at 5 µM only.
Given back: 0.1

Further cases:
Asked: // Input: `CCC(=O)Nc1ccc(S(=O)(=O)NC[C@@H](O)C[C@@H](Cc2ccccc2)C(=O)N[C@H]2c3ccccc3C[C@H]2O)cc1` . Output its inhibition at 5 µM only.
Given back: -10.4

Asked: // Input: `CCCCNC(=O)c1ccc(S(=O)(=O)NC[C@@H](O)C[C@@H](Cc2ccccc2)C(=O)N[C@H]2c3ccccc3C[C@H]2O)cc1` . Output its inhibition at 5 µM only.
Given back: -5.5

Asked: // Input: `O=C(Nc1ccc(S(=O)(=O)NC[C@@H](O)C[C@@H](Cc2ccccc2)C(=O)N[C@H]2c3ccccc3C[C@H]2O)cc1)C1CC1` . Output its inhibition at 5 µM only.
Given back: -4.2

Asked: // Input: `CN(C)c1ccc(S(=O)(=O)NC[C@@H](O)C[C@@H](Cc2ccccc2)C(=O)N[C@H]2c3ccccc3C[C@H]2O)cc1` . Output its inhibition at 5 µM only.
Given back: 8.7

Asked: // Input: `CC(=O)Nc1ccc(S(=O)(=O)NC[C@H](C[C@@H](Cc2ccccc2)C(=O)N[C@H]2c3ccccc3C[C@H]2O)OC(C)=O)cc1` . Output its inhibition at 5 µM only.
Given back: 10.5

Asked: // Input: `O=C(N[C@H]1c2ccccc2C[C@H]1O)[C@H](Cc1ccccc1)C[C@H](O)CNS(=O)(=O)c1ccc(C(=O)N2CCCCC2)cc1` . Output its inhibition at 5 µM only.
Given back: -12.3

Asked: // Input: O=C(N[C@H]1c2ccccc2C[C@H]1O)[C@H](Cc1ccccc1)C[C@H](O)CNS(=O)(=O)c1ccc([N+](=O)[O-])cc1 [Compound A27, reference compound] . Output its inhibition at 5 µM only.
Given back: 29.3
